src = ChEMBL document CHEMBL3137667

// values below are reported Hepatotoxicity (malignant tumour)
- CONDITION PARAMETERS: human
// return just the number, without any unit appended

Use the examples below as a reference point.
[[record]]
compound = "Cc1cc2c(C(C)C)c(O)c(O)c(C=O)c2c(O)c1-c1c(C)cc2c(C(C)C)c(O)c(O)c(C=O)c2c1O"
reported_value = 0

[[record]]
compound = "CC[C@H](c1ccc(O)cc1)[C@@H](CC)c1ccc(O)cc1"
reported_value = 0

[[record]]
compound = "CC1CCN(CCCC(=O)c2ccc(F)cc2)CC1"
reported_value = 0

[[record]]
compound = "CC(=O)Nc1ccc(/C=N/NC(N)=S)cc1"
reported_value = 0

[[record]]
compound = "CN(C)CC(Oc1ccccc1)Oc1ccccc1"
reported_value = 0

[[record]]
compound = "CCCc1cc(C(N)=S)ccn1 [PROTIONAMIDE]"
reported_value = 0

[[record]]
compound = "O=C(COCC(=O)Nc1c(I)cc(I)c(C(=O)O)c1I)Nc1c(I)cc(I)c(C(=O)O)c1I"
reported_value = 0

[[record]]
compound = "CN(Cc1cc(Br)cc(Br)c1N)C1CCCCC1"
reported_value = 0


Please find the next compound below.
Consider the compound `Cc1cccc(Nc2cc(Cl)nc(SCC(=O)NCCO)n2)c1C` and give its measured Hepatotoxicity (malignant tumour).
0

###

- PROTOCOL DETAILS: Highest frequency of acute liver toxicity observed during clinical trials, expressed as a percentage. [column '% AIGUE' in source]
- CONDITION PARAMETERS: human
READOUT NAME: Hepatotoxicity (acute) (%)
Number in %, nothing else.

[[record]]
compound = "O=C(CCCN1CCC(O)(c2ccc(Br)cc2)CC1)c1ccc(F)cc1"
readout_name = "Hepatotoxicity (acute)"
reported_value = 0

[[record]]
compound = "N#C[C@H](O[C@@H]1O[C@H](CO[C@@H]2O[C@H](CO)[C@@H](O)[C@H](O)[C@H]2O)[C@@H](O)[C@H](O)[C@H]1O)c1ccccc1"
readout_name = "Hepatotoxicity (acute)"
reported_value = 0

[[record]]
compound = "C=CC1=C(C(=O)O)N2C(=O)[C@@H](NC(=O)/C(=N\\OCC(=O)O)c3csc(N)n3)[C@H]2SC1"
readout_name = "Hepatotoxicity (acute)"
reported_value = 0


Please find the next compound below.
Consider the compound CCN(CC)CC[n+]1ccc2c(C)c3[nH]c4ccc(O)cc4c3c(C)c2c1.[Cl-] [DATELLIPTIUM CHLORIDE] and give its measured Hepatotoxicity (acute).
7.1

###

- PROTOCOL DETAILS: Highest frequency of moderate liver toxicity observed during clinical trials, expressed as a percentage. [column '% BIOL' in source]
- CONDITION PARAMETERS: human
// values below are reported Hepatotoxicity (moderate)
Number in %, nothing else.

Use the examples below as a reference point.
[[record]]
molecule = "CCCCCCCCCCCCCCCCSCC(COC)COP(=O)([O-])OCC[N+](C)(C)C (centres undefined)"
scale_unit = "%"
reported_value = 71.4

[[record]]
molecule = "CN1C[C@H](C(=O)N[C@]2(C)O[C@@]3(O)[C@@H]4CCCN4C(=O)[C@H](Cc4ccccc4)N3C2=O)C=C2c3cccc4[nH]cc(c34)C[C@H]21"
scale_unit = "%"
reported_value = 35.7

[[record]]
molecule = "Nc1ccc(C(=O)O)cc1"
scale_unit = "%"
reported_value = 35

[[record]]
molecule = "CN(C)CCOC1=Cc2ccccc2Sc2ccc(Cl)cc21 [ZOTEPINE]"
scale_unit = "%"
reported_value = 34.8

[[record]]
molecule = "CNC(=O)OCc1cccc(COC(=O)NC)n1 [PYRICARBATE]"
scale_unit = "%"
reported_value = 10

[[record]]
molecule = "COc1ccc(OC)c(Cc2cnc3nc(N)nc(N)c3c2C)c1"
scale_unit = "%"
reported_value = 12.1

[[record]]
molecule = "CN(N=O)C(=O)N[C@@H](C=O)[C@@H](O)[C@H](O)[C@H](O)CO"
scale_unit = "%"
reported_value = 67

[[record]]
molecule = "O=C(O)COC(=O)Cc1ccccc1Nc1c(Cl)cccc1Cl"
scale_unit = "%"
reported_value = 3.3


Consider the molecule CCOC(=O)C1(c2ccccc2)CCN(CCC(O)c2ccccc2)CC1 (centres undefined) and give its measured Hepatotoxicity (moderate).
0

Consider the molecule CCN(CC)CCCC(C)Nc1c2ccc(Cl)cc2nc2ccc(OC)cc12 (centres undefined) and give its measured Hepatotoxicity (moderate).
0

Consider the molecule `CCOC(=O)C1=C(C)NC(C)=C(C(=O)OCC)C1c1ccccc1/C=C/C(=O)OC(C)(C)C` and give its measured Hepatotoxicity (moderate).
0

Consider the molecule `C[C@@H]1C[C@H]2[C@@H]3CCC4=CC(=O)C=C[C@]4(C)C3=CC[C@]2(C)[C@H]1C(=O)CN1CCN(c2cc(N3CCCC3)nc(N3CCCC3)n2)CC1` and give its measured Hepatotoxicity (moderate).
8.5

Consider the molecule `O=C1CN(/N=C/c2ccc([N+](=O)[O-])o2)C(=O)N1CO` and give its measured Hepatotoxicity (moderate).
0
